This listing pairs variants with measured screen value.
B1: TPTE2 peptide 94-109 (Phosphatidylinositol 3,4,5-trisphosphate 3-phosphatase TPTE2), 16-mer library wild type / TLN1 PTB (TLN1 Phosphotyrosine-binding (PTB) domain, residues 309-401) (parent)
chain 1: DLIFTDSKLYIPLEYR
chain 2: GVSFFLVKEKMKGKNKLVPRLLGITKECVMRVDEKTKEVIQEWNLTNIKRWAASPKSFTLDFGDYQDGYYSVQTTEGEQIAQLIAGYIDIILK

Variants of: B1
Assay: proteomic peptide phage display deep mutational scan (ProP-PD DMS): M13 P8 16-mer library selected against immobilised GST-tagged bait for four days (rounds), NGS of the eluted pools per day and pseudo-replica
Conditions: with TLN1 PTB (TLN1 Phosphotyrosine-binding (PTB) domain, residues 309-401); bait immobilised on MaxiSorp plates (10 µg), library pre-cleared on GST, 2 h binding at 4 °C, five washes; one round per day, days 1-4; value from days 2 and 3; keep out of graded; scale: average fractional NGS count over selection days 2 and 3
// return just the number, without any unit appended

Recorded results for 5 variants are shown here.
chain 1 K8S ... 0.00137
chain 1 Y15G ... 0.000939
chain 1 L2F ... 5.85e-05
chain 1 T5I ... 0.000118
chain 1 F4W ... 0.00189

Record summary for chain 1 I3N : reported screen value = 0.00121

Record summary for chain 1 I3Y : reported screen value = 0.000244

Summary for this variant, chain 1 Y10W : screen value is 0.00022

Summary for this variant, chain 1 E14D : screen value is 0.00114

Memo: chain 1 Y10R , reported screen value: 0

// screen value value for chain 1 L9D : 0

get_value(item= chain 1 I11R , readout=screen value) returns 0.000323
